Reported values of inhibition at 10 µM for individual entries
test system: OVCAR-8; assay: NCI one-dose SRB growth assay; assay type: cell-based; settings: Homo sapiens; OVCAR-8 (Ovarian Cancer), 10^-5 M, 48 h; read-out: % Growth Inhibition (GI %)

MOLECULE	TARGET_OR_SYSTEM	inhibition at 10 µM
CCn1cc(C(=O)O)c(=O)c2cc(F)c(N3CCN(S(=O)(=O)c4c(C)cc(C)cc4C)CC3)cc21	OVCAR-8	18.5%

# next compound below
Which inhibition at 10 µM is reported for this compound? `O=C(O)c1cn(C2CC2)c2cc(N3CCN(S(=O)(=O)c4ccc(Cl)cc4Cl)CC3)c(F)cc2c1=O`
< 10%

###

tested on: OVCAR-8; assay: NCI one-dose SRB growth assay; assay type: cell-based; conditions: Homo sapiens; OVCAR-8 (Ovarian Cancer), 10^-5 M, 48 h; read-out: % Growth Inhibition (GI %)
Here the recorded inhibition at 10 µM is given for each entry.
Just the number please, in %, no unit attached.

COMPOUND	TARGET_OR_SYSTEM	inhibition at 10 µM (%)
O=C(O)c1cn(C2CC2)c2cc(N3CCN(S(=O)(=O)c4ccc(Cl)c(Cl)c4)CC3)c(F)cc2c1=O [Compound 3b]	OVCAR-8	94.5
CCn1cc(C(=O)O)c(=O)c2cc(F)c(N3CCN(S(=O)(=O)c4cccc5ccccc45)CC3)cc21 [Compound 7a]	OVCAR-8	91.6

# evaluate next
Data request, read-out inhibition at 10 µM, for Cc1cc(C)c(S(=O)(=O)N2CCN(c3cc4c(cc3F)c(=O)c(C(=O)O)cn4C3CC3)CC2)c(C)c1 [Compound 6b]
40.5
